Some variants, each annotated with its measured ratio to parent.
B1: H2-Kb / Ed33 (parent complex)
chain 1: SQLAEENSWALSVHEGESVTVNCSYKTSITALQWYRQKSGKGPAQLILIRSNEREKRNGRLRATLDTSSQSSSLSITATRCEDTAVYFCATDHNNAGAKLTFGGGTRLTVRP
chain 2: DAGVTQTPRHEVAEKGQTIILKCEPVSGHNDLFWYRQTKIQGLELLSYFRSKSLMEDGGAFKDRFKAEMLNSSFSTLKIQPTEPKDSAVYLCASSLYTNQAPLFGEGTRLSVL
chain 3: not shown
chain 4: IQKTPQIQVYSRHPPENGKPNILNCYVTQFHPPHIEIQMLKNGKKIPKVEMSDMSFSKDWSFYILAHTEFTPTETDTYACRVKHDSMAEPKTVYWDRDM
chain 5: SIINFEKL

variants of: B1; assay: % of reporter cells activated (NFAT-GFP), raw; also: test concentration or dose not given here
Lab note: jot down the number only; don't add units.

So for chain 5 S1T , the logged ratio to parent turned out to be 0.61

Kindly note the recorded ratio to parent for chain 5 S1D , which is 1.05

Lab note: measured ratio to parent of chain 5 L8F was 0.941

response.value for chain 5 E6S (field: ratio to parent) = 0.0699

Looking up chain 5 N4D , I found its ratio to parent recorded as 0.135

The variant listed as chain 5 I3E shows ratio to parent equal to 1.06

Given item chain 5 N4V , the value recorded as its ratio to parent is 0.181

response.value for chain 5 I3Q (field: ratio to parent) = 1.08

Measured ratio to parent of chain 5 E6D : 0.113

For chain 5 I2G the variant record lists ratio to parent as 0.456

The value of ratio to parent measured for the variant chain 5 L8W turned out to be 0.881

Looking up chain 5 F5D , I found its ratio to parent recorded as 0.85

// ratio to parent lookup, variant = chain 5 S1P , result: 0.115
